Cited source for all entries: PubChem BioAssay (NCI)

Tested on: IGROV1 ovarian
Assay: NCI tumour cell line growth inhibition, 48 h
Reported TGI values follow for various compounds

compound: Cc1nn(-c2ccccc2)c2c1[C@@H](C)[C@H]1CC3(CC4(C)C[C@@H]3C1(C)c1c(C)nn(-c3ccccc3)c1N4C)N2C (stereo partly drawn)
TGI: > 100 µM

compound: O=C1C(=C2C(=O)c3ccccc3[N+]2=O)N([O-])c2ccccc21
TGI: > 100 µM

compound: COc1cc(N(CCC#N)CCC#N)ccc1/C(N=Nc1cccc([N+](=O)[O-])c1)=N\NC(=O)c1ccc(C)cc1
TGI: > 100 µM

compound: FC(F)(F)c1ccc2c(c1)nc(Cc1ccc(Cl)cc1)n2CC1CCCN2CCCCC12 (stereo not drawn)
TGI: 22 µM

compound: CC(C)c1cc(C(C)C)c(S(=O)(=O)N/N=C2\CC3CCC2(C)C3(C)C)c(C(C)C)c1 (stereo not drawn)
TGI: > 100 µM

compound: CN(C)CCCn1c2c(c3ccc(N4CCNCC4)cc3c1=O)C(=O)c1ccccc1-2
TGI: 3.73 µM

compound: C=C1C(=O)O[C@H]2[C@H]1CC/C(COC(=O)NCc1ccc(Cn3c(=O)sn(CCCI)c3=O)cc1)=C\CC[C@@]1(C)O[C@@H]21
TGI: 3.84 µM

compound: C/C=C/C(C/C=C(\C)CO[Si](C)(C)C(C)(C)C)O[Si](C)(C)C(C)(C)C (stereo not drawn)
TGI: > 100 µM

###

// reported GI50 per item
System: HOP-92 NSCLC
Assay: NCI tumour cell line growth inhibition, 48 h

smiles-entry: COc1cc(-c2nn(-c3cccc(NC(=O)NCCNC(=O)c4ccccc4)c3)cc2-c2ccncc2)ccc1Cl
GI50: 2630 nM

smiles-entry: CCn1nc(C#Cc2c(C)ccc3c(Nc4ccc(Cl)cc4)nccc23)c2c(N)ncnc21
GI50: 1790 nM

smiles-entry: COc1cccc(-c2cc(-c3ccc(Nc4nc(Nc5ccc(Cl)cc5)nc(Nc5ccc(Cl)cc5)n4)cc3)nc(N)c2C#N)c1
GI50: 1100 nM

smiles-entry: COc1ncc(-c2ccc3nc(N)n(-c4ccccc4C(F)(F)F)c(=O)c3c2)cc1S(=O)(=O)Nc1ccc(F)cc1F
GI50: 432 nM

###

Property: TGI; scope: individual compounds
Tested on: TK-10 renal
Test: NCI tumour cell line growth inhibition, 48 h
Where a SMILES comes first, the peptide text is derived from it. The star is where a group is joined. Boc = CC(C)(C)OC(=O)*; OtBu = CC(C)(C)O*

compound: CCc1cccc(CC)c1NC1=CC(=O)C(=O)c2ccccc21
TGI: 56.3 µM
//
compound: C(#C[C@@]12CCC[C@@H]1NCO2)c1ccc2c(c1)OCO2
TGI: > 100 µM
//
compound: CC(=O)C1=C(C)N2C(=NC3=C(CCc4ccccc43)C2c2ccc(Cl)cc2)S1 (configuration not stated)
TGI: > 100 µM
//
compound: N/C(=N\O)c1cn(C2OC(CO)C(O)C2O)c2ncnc(N)c12 (configuration not stated)
TGI: 7.49 µM
//
compound: CCn1nc(C#Cc2c(C)ccc3c(Nc4ccc(Cl)cc4)nccc23)c2c(N)ncnc21
TGI: > 100 µM
//
compound: CCO/C=N\C1=C(C#N)SC2=N/C(=C\c3ccco3)C(=O)N21
TGI: > 100 µM
//
compound: FC(F)(F)c1ccc2c(c1)nc(Cc1ccc(Cl)cc1)n2CC1CCCN2CCCCC12 (configuration not stated)
TGI: 24.7 µM
//
compound: Nc1ccc(Oc2ccc(C3(c4ccc(Oc5ccc(N)c(O)c5)cc4)C4CC5CC(C4)CC3C5)cc2)cc1O
TGI: 4.54 µM
//
compound: O=C1/C(=C/c2ccc(Cl)cc2)NC(=S)N1CN1CCCCC1
TGI: > 100 µM
//
compound: CCOC(=O)c1nc2ccccc2nc1Oc1ccc(F)cc1
TGI: > 100 µM
//
compound: COc1ncc(-c2ccc3nc(N)n(-c4ccccc4C(F)(F)F)c(=O)c3c2)cc1S(=O)(=O)Nc1ccc(F)cc1F
TGI: > 100 µM
//
compound: COc1cc(Nc2nc(NS(=O)(=O)c3cc(C)c(Cl)cc3S)n[nH]2)cc(OC)c1OC
TGI: > 100 µM
//
compound: O=C(CNC(=O)c1cccc2ccccc12)Nc1ccccc1Oc1ccc(O)cc1
TGI: > 25 µM
//
compound: COc1cc(F)c(F)c(F)c1C(=O)c1cnc(NC2CCN(S(C)(=O)=O)CC2)nc1N
TGI: 24.7 µM
//
compound: CC(C)C1CC(CO)(CNc2nc(N)nc(Cl)c2C=O)C1 (configuration not stated)
TGI: > 100 µM
//
compound: N#CC(C#N)=CNC(=S)Nc1ccc(S(=O)(=O)Nc2nccs2)cc1
TGI: > 100 µM
//
compound: COc1cc2c(cc1O)CCN[C@@]21CS[C@H]2c3c(OC(C)=O)c(C)c4c(c3C(COC1=O)N1C2C2NC(Cc3cc(C)c(OC)c(O)c32)[C@@H]1C#N)OCO4 (some centres not stated)
TGI: 61 µM
//
compound: CSc1cnc2ccccc2c1Sc1cn(C)c2ccccc2c1=O
TGI: > 100 µM
//
compound: COc1cc(CCNC2=CC(=O)c3ncccc3C2=O)ccc1O
TGI: 70.8 µM
//
compound: CC(=O)OC1=C(c2ccccc2)S(=O)(=O)c2ccccc21
TGI: > 100 µM
//
compound: CCOC(=O)c1c2ccccc2n2c(=O)n(-c3ccccc3)nnc12
TGI: > 100 µM
//
compound: O=C(c1ccccc1)N1N=C(C(F)(F)F)CC1(O)C(F)(F)F (configuration not stated)
TGI: > 100 µM
//
compound: Cn1c2ccccc2n2c3ccccc3c3nnc(N)c-3c12
TGI: > 100 µM
//
compound: COc1cc(-c2nn(-c3cccc(NC(=O)NCCNC(=O)c4ccccc4)c3)cc2-c2ccncc2)ccc1Cl
TGI: 63.7 µM
//
compound: CC(C)(C)OC(=O)CC(NC(=O)OC(C)(C)C)C(=O)NC(Cc1ccccc1)C(N)=O (configuration not stated) (Boc-Asp(OtBu)-Phe-NH2; configuration not given here)
TGI: > 100 µM
//
compound: C/C(=N\NC(N)=O)C(CN1CCOCC1)C(c1ccccc1)c1c(O)c2ccccc2oc1=O (configuration not stated)
TGI: > 100 µM
//
compound: COCc1nc(C#N)c(N)o1
TGI: > 10 µM
